- Target Entity: VIM-2 metallo-beta-lactamase (Pseudomonas aeruginosa) (UniProt Q9K2N0)
- Test Protocol: inhibition of VIM-2 nitrocefin hydrolysis – biochemical, epi-absorbance, dose response, late-stage follow-up (AID 2769)
- Setup Conditions: purified VIM-2, nitrocefin absorbance hydrolysis
Entries and their measured IC50 follow.

>>> recorded_result("O=C(O)c1cc[c]([Hg][Cl])cc1")
"2.59 µM"
>>> recorded_result("O=C(O)c1ccc[c]([Hg+])c1")
"0.817 µM"

Measured IC50, [Hg+][c]1ccccc1 : 1 µM

The molecule identified as Cc1cc[c]([Hg+])cc1 registered its IC50 at 0.814 µM

Data point: CC(=O)Nc1cc[c]([Hg+])cc1 ; IC50 = 2.58 µM
